# Experimental details: Phase 1b study in female adults with cystitis, plasma PK
# Type: in vivo, human
# Condition label: female, human, plasma, oral, 300 mg, plasma, Day 1, PO300; read-out: AUC(0-12 hrs), Mean
Experimental readout: AUC(0-t) (ng·h/mL)
Give bare numbers, in ng·h/mL.

[ask] Query (compound): CN(C)c1cc(CNCC(C)(C)C)c(O)c2c1C[C@H]1C[C@H]3[C@H](N(C)C)C(O)=C(C(N)=O)C(=O)[C@@]3(O)C(O)=C1C2=O [Compound 1] ; field requested: AUC(0-t)
[reply] 6260

----------
# Experimental details: Phase 1b study in female adults with cystitis, plasma PK
# Assay type: in vivo, human
# Condition label: female, human, plasma, oral, 300 mg, plasma, Day 5, PO300; read-out: Ctrough, Median
Experimental readout: concentration at 5 day

[ask] Query (compound): CN(C)c1cc(CNCC(C)(C)C)c(O)c2c1C[C@H]1C[C@H]3[C@H](N(C)C)C(O)=C(C(N)=O)C(=O)[C@@]3(O)C(O)=C1C2=O ; field requested: concentration at 5 day
[reply] 315 ng/mL
